B1: DYRK1B (parent)
chain: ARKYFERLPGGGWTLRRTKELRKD

- Variants of: B1
- Method Notes: protein stability index of a GFP-peptide fusion (GPS, HEK-293T) (PSI 1-6); higher = more stable;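 further: lentivirally expressed fusions sorted by FACS into six bins by GFP to DsRed ratio, PSI derived from sequencing read proportions per bin multiplied by bin number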
- Experimental Setup: c terminus: a fixed tail appended
The label depends only on protein stability index: T if it is at least 3, F if it is smaller.

L8H = T
E6Q = F
L21Q = T
F5K = T
F5Q = T
Y4M = T

# ---- query variant ----
Entry D24E : is its protein stability index no less than 3?
T

Sourced from the supplement of paper PMC10567573
